Here, molecules appear alongside pIC50 reported for Serine/threonine-protein kinase pim-1 (Homo sapiens) in the literature.
pIC50: −log10 of the molar value.
Measurement type: pIC50

Answered examples (5):
C[C@H]1C[C@@H](c2ccncc2NC(=O)c2ccc(F)c(-c3c(F)cc(OCCO)cc3F)n2)C[C@@H](N)[C@@H]1O ... 10.22
CC(C)(C)c1cccc2ccc(-c3nnc4ccc([C@@H](N5C[C@@H](O)[C@H](O)C5)C(F)(F)F)cn34)nc12 ... 10.05
O=c1ccc2cnc(Nc3ccc(N4CCC(CCCO)CC4)cc3F)nc2n1[C@@H]1CC2CCC1C2 (some centres unmarked) ... 4.55
CC1=Nc2ccc(-c3nc(Nc4ccc(N5CCNCC5)cn4)ncc3F)cc2C12CCCC2 ... 7.54
C[C@H]1CN(c2ccncc2NC(=O)c2ccc(F)c(-c3c(F)cc(CCO)cc3F)n2)C[C@@H](N)[C@@H]1O ... 10.52

(a) CCc1nn(C)c2c1/C=C/c1n[nH]c3ccc(cc13)-c1cnn(C)c1OCCN(C)C2=O
(b) C[C@@H]1C[C@H](N)C[C@H](c2ccncc2NC(=O)c2ccc(F)c(-c3c(F)cc(OCC(=O)N(C)C)cc3F)n2)C1
(c) CC(C)(C)C(=O)Nc1ccc2ccc(-c3nnc4ccc([C@@H](N5CC[C@H](O)C5)C(F)(F)F)cn34)nc2c1
(d) C[C@@H]1C[C@H](N)C[C@H](c2ccncc2NC(=O)c2ccc(F)c(-c3c(F)cc(C4(C#N)CCOCC4)cc3F)n2)C1
Sort by pIC50, descending. Your reply should list the labels following the order given in the request.
d, b, c, a
(d: 10.52, b: 10.30, c: 9.32, a: 8.58)

====

pIC50: −log10 of the molar value.
Here, compounds appear alongside pIC50 reported for Serine/threonine-protein kinase pim-1 (Homo sapiens) in the literature.
Measurement type: pIC50

Answered examples (2):
CN(C)CCN(Cc1ccccc1)c1nc2c(Br)c(Br)c(Br)c(Br)c2[nH]1 ... 7.20
C[C@@H]1C[C@H](N)C[C@H](c2ccncc2NC(=O)c2csc(-c3c(F)ccc(F)c3F)n2)C1 (stereo in doubt) ... 8.52

(a) NCC1CCN(c2cccc3ccc(-c4nnc5ccccn45)nc23)CC1
(b) C[C@H]1C[C@@H](c2ccncc2NC(=O)c2ccc(F)c(-c3c(F)cc(C4CCS(=O)(=O)CC4)cc3F)n2)C[C@@H](N)[C@H]1O
(c) COCCOc1cc(F)c(-c2nc(C(=O)Nc3cnccc3[C@H]3C[C@@H](N)[C@@H](O)[C@@H](C)C3)ccc2F)c(F)c1
Sort by pIC50, descending. Your reply should list the labels following the order given in the request.
b, c, a

====

pIC50: −log10 of the molar value.
Here, compounds appear alongside pIC50 reported for Serine/threonine-protein kinase pim-1 (Homo sapiens) in the literature.
Measurement type: pIC50

C[C@@H]1C[C@H](N)C[C@H](c2ccncc2NC(=O)c2ccc(F)c(-c3c(F)cc(C4(F)COC4)cc3F)n2)C1 ... 10.30

(A) COCc1cc(F)c(-c2nc(C(=O)Nc3cnccc3[C@@H]3C[C@H](C)C[C@H](N)C3)ccc2F)c(F)c1
(B) CC1=Nc2c(F)cc(-c3nc(Nc4ccc(C5CCNCC5)cn4)ncc3F)cc2C12CCCC2
(C) COCc1cc(F)c(-c2nc(C(=O)Nc3cnccc3[C@H]3C[C@@H](N)[C@H](O)[C@@H](C)C3)ccc2F)c(F)c1
(D) COc1cccc2ccc(-c3nnc4ccc([C@@H](N5CC[C@@](N)(CF)C5)C(F)(F)F)cn34)nc12 (single isomer, unassigned)
Could you please order the items by pIC50, going from the lowest number to the highest? Your reply should list the labels following the order given in the request.
D, B, C, A
(D: 8.18, B: 8.65, C: 10.10, A: 10.40)

(A) COCCCOc1cc(F)c(-c2nc(C(=O)Nc3cnccc3[C@H]3C[C@@H](N)[C@H](O)[C@@H](C)C3)ccc2F)c(F)c1
(B) N[C@@H]1CN(c2ccnc3ccc(-c4cccc(-c5c(F)cccc5F)n4)cc23)CC[C@H]1O
(C) CCOC(C)(C)c1cc(F)c(-c2nc(C(=O)Nc3cnccc3[C@H]3C[C@@H](N)[C@H](O)[C@@H](C)C3)ccc2F)c(F)c1
Sort by pIC50, descending. Your reply should list the labels following the order given in the request.
A, C, B

(A) CC1CCCN(c2cccc3ccc(-c4nnc5ccccn45)nc23)C1 (stereo not shown)
(B) C[C@@H]1C[C@H](N)C[C@H](c2ccncc2NC(=O)c2csc(C3CCCCC3)n2)C1
(C) CCOC(C)(C)c1cc(F)c(-c2nc(C(=O)Nc3cnccc3[C@@H]3C[C@H](C)C[C@H](N)C3)ccc2F)c(F)c1
Could you please order the items by pIC50, going from the lowest number to the highest? Your reply should list the labels following the order given in the request.
B, A, C

====

Here, molecules appear alongside pIC50 reported for Serine/threonine-protein kinase pim-1 (Homo sapiens) in the literature.
pIC50: −log10 of the molar value.
Measurement type: pIC50

Answered examples (2):
Nc1ccc(-c2ccc(F)cc2)nc1-c1cc2c(N3CCC[C@H](N)C3)ccnc2cn1 ... 8.22
C[C@H]1C[C@@H](c2ccncc2NC(=O)c2ccc(F)c(-c3c(F)cc(CC(C)(C)O)cc3F)n2)C[C@@H](N)[C@@H]1O ... 10.30

(A) C[C@H]1C[C@@H](c2ccncc2NC(=O)c2ccc(F)c(-c3c(F)cc(OC4CCOCC4)cc3F)n2)C[C@@H](N)[C@H]1O
(B) COc1cccc2ccc(-c3nnc4ccc(C(N5CCCC5)C(F)(F)F)cn34)nc12 (centres unmarked)
Determine, for A and B , which has the greater value of pIC50. # respond with the chosen item's label
A
(A: 10.40, B: 7.95)

(A) CCC1(CC)C(C)=Nc2c(F)cc(-c3nc(Nc4ccc(N5CCN(C)CC5)cn4)ncc3F)cc21
(B) CCOCc1cc(F)c(-c2nc(C(=O)Nc3cnccc3[C@H]3C[C@@H](N)[C@H](O)[C@@H](C)C3)ccc2F)c(F)c1
Determine, for A and B , which has the greater value of pIC50. # respond with the chosen item's label
B

(P) CC(C)[C@@H]1C[C@H](N)C[C@H](c2ccncc2NC(=O)c2ccc(F)c(-c3c(F)cc(C(C)(C)O)cc3F)n2)C1
(Q) C[C@@H]1C[C@H](N)C[C@H](c2ccncc2NC(=O)c2cccc(-c3c(F)cc(C4(F)CCOCC4)cc3F)n2)C1
Returns the identifier with the smallest measured pIC50 among P and Q . # respond with the chosen item's label
Q

====

Here, molecules appear alongside IC50 reported for Serine/threonine-protein kinase pim-1 (Homo sapiens) in the literature.
Measurement type: IC50 (nM)

Answered examples (4):
C[C@@H]1C[C@H](N)C[C@H](c2ccncc2NC(=O)c2cccc(-c3c(F)cc(OC4CCOCC4)cc3F)n2)C1 ... 0.03
CC(C)Oc1cc(F)c(-c2nc(C(=O)Nc3cnccc3[C@H]3C[C@@H](N)[C@H](O)[C@@H](C)C3)ccc2F)c(F)c1 ... 0.01
Brc1c(Br)c(Br)c2[nH]c(N3CCCC(CN4CCN(c5ccccn5)CC4)C3)nc2c1Br (stereo not drawn) ... 294
COC1(c2cc(F)c(-c3nc(C(=O)Nc4cnccc4[C@H]4C[C@@H](N)[C@H](O)[C@@H](C)C4)ccc3F)c(F)c2)COC1 ... 0.05

(1) C[C@H]1C[C@@H](c2ccncc2NC(=O)c2ccc(F)c(-c3c(F)cc4c(c3F)OCC4)n2)C[C@@H](N)[C@@H]1O
(2) Brc1c(Br)c(Br)c2[nH]c(NCCCN3CCCC3)nc2c1Br
(3) NCC1CCN(c2cccc3ccc(-c4nnc5cc(CO)ccn45)nc23)CC1
Sort by IC50, descending. Your reply should list the labels following the order given in the request.
3, 2, 1
(3: 84 nM, 2: 25.7 nM, 1: 0.02 nM)

====

Here, molecules appear alongside IC50 reported for Serine/threonine-protein kinase pim-1 (Homo sapiens, UniProt P11309) in the literature.
Measurement type: IC50 (nM)

C[C@@H]1C[C@H](N)C[C@H](c2ccncc2NC(=O)c2csc(-c3c(F)ccc(Cl)c3F)n2)C1 (stereo in doubt) ... 1
C[C@@H]1C[C@H](N)C[C@H](c2ccncc2NC(=O)c2ccc(F)c(-c3c(F)ccc(OCCO)c3F)n2)C1 ... 0.04
CC(O)CCN1CCN(c2ccc(Nc3ncc4ccc(=O)n([C@@H]5CC6CCC5C6)c4n3)cc2)CC1 (stereo partly drawn) ... 7190
C[C@H]1C[C@@H](c2ccncc2NC(=O)c2ccc(F)c(-c3c(F)cc(O[C@@H]4CCCOC4)cc3F)n2)C[C@@H](N)[C@@H]1O ... 0.02

(I) N[C@@H]1CCCN(c2cccc3ccc(-c4nnc5ccccn45)nc23)C1
(II) Nc1cc(Br)c(Br)cc1Nc1nc2c(Br)c(Br)c(Br)c(Br)c2[nH]1
Determine, for I and II , which has the greater value of IC50. # respond with the chosen item's label
II
